ASSAY_OVERVIEW: gradient 5% acetonitrile 3 min, to 50% in 2 min, to 85% in 15 min, held 3 min, 100 µL/min
STUDY_CONDITIONS: column: Zorbax Extend-C18 2.1 x 50 mm; eluents: water / acetonitrile, 0.1% formic acid
RECORDED_ENDPOINT: RP-LC retention time (s)

1. Cc1cc(N)c2cc(NC(=O)/C=C\c3ccccc3Cl)ccc2n1; 751
2. COc1ccc(C2(C(=O)N3CCC(c4nc(-c5cccn5C)no4)C3)CC2)cc1 (stereo not given); 910
3. O=C(C1CCN(c2ncnc3c2nc2n3CCCCC2)CC1)N1CCN(c2ncccn2)CC1; 669
4. CC(=O)N1CCC2(CC1)CC(N(C(=O)NC(C)C)C1CC1)CCO2 (stereo not given); 653
5. CC1(C)CC(=O)c2cn(-c3ccccc3)c(=O)c(C(=O)N3CCOCC3)c2C1; 694
6. O=C(Cc1ccccc1Cl)N1CCC2(C1)C(=O)Nc1ccccc12 (stereo not given); 758
7. CCC(=O)n1nc(-c2ccccc2C)nc1N; 875
8. COc1ccccc1Cn1cc(C(=O)c2ccccc2)c(=O)c2cc3c(cc21)OCCO3; 815
9. CO[C@H]1CN(C(C)C)[C@H]1C1CCN(C(=O)C2CC=CC2)CC1; 593
10. COc1ccccc1C(=O)NCCc1c[nH]c2ccc(F)cc12; 842

----------
ASSAY_OVERVIEW: gradient 5% acetonitrile 3 min, to 50% in 2 min, to 85% in 15 min, held 3 min, 100 µL/min
STUDY_CONDITIONS: column: Zorbax Extend-C18 2.1 x 50 mm; eluents: water / acetonitrile, 0.1% formic acid
RECORDED_ENDPOINT: RP-LC retention time (s)

// worked examples, RP-LC retention time included
1. Cc1nn(C)c(=O)c2cc(S(=O)(=O)NCc3ccc(F)cc3)cn12; 766
2. Cc1cc(C)cc(NC(=O)N2CCC(n3cnc4cc(F)ccc4c3=O)CC2)c1; 846
3. COC(=O)c1cc(N2CCN(C)CC2)nc2c(C)cccc12; 670
4. O=C(NC1CC1)C1CCN(c2nc3ccc(-c4ccc(F)cc4)nc3s2)CC1; 878

(a) Cc1cccc(C)c1OCC(O)Cn1c(C2CC(=O)N(Cc3ccccc3)C2)nc2ccccc21 (stereo not given)
(b) Cc1ccc(-c2csc(NC(=O)COc3ccc(C)cc3Br)n2)cc1
Parameter metric = RP-LC retention time. Return the lower-valued option from a and b . Let me know the label of the one you choose.
a
(a: 834 s, b: 1290 s)

(P) CCOC(=O)C(C)Sc1nnc2n1CCN2c1ccc(OC)cc1 (stereo not given)
(Q) CCCn1cc(C(=O)NCCCOCC)c(S(=O)(=O)N2CCN(c3cccc(Cl)c3)CC2)n1
Which one would you say has the larger RP-LC retention time value: P , or Q ? Let me know the label of the one you choose.
Q

----------
ASSAY_OVERVIEW: gradient 5% acetonitrile 3 min, to 50% in 2 min, to 85% in 15 min, held 3 min, 100 µL/min
STUDY_CONDITIONS: column: Zorbax Extend-C18 2.1 x 50 mm; eluents: water / acetonitrile, 0.1% formic acid
RECORDED_ENDPOINT: RP-LC retention time (s)

1) O=C(NCc1ccc(F)cc1)N1CCCC1c1nc(-c2ccccc2)no1 (centres undefined); 914
2) CCn1ccc2oc(C)c(C(=O)N3CCN(c4cccc(Cl)c4)CC3)c2c1=O; 896
3) CCc1noc([C@@H]2CC(F)(F)CN2S(=O)(=O)c2cccnc2)n1; 773
4) CCN1C(=O)c2cccnc2Sc2cc(NC(=O)c3ccccc3)ccc21; 812
5) O=C(NCC1CC1)C1CCN(C(=O)c2ncn3c2COC(c2ccc(Cl)cc2)C3)CC1 (centres undefined); 758
6) Cc1cccc2nc(-c3ccc(N4CCOCC4)cc3)c(Nc3ccc4c(c3)OCO4)n12; 676
7) O=C(CCc1cc2ccccc2[nH]c1=O)N1CCN(C(=O)c2ccco2)CC1; 638
8) O=C(CCCn1nc(-c2ccccc2)c2cc(Cl)ccc21)N1CCN(c2ccccn2)CC1; 764
9) CCOc1ccc(C(C)NC(=O)c2c(C)sc3ccn(CC)c(=O)c23)cc1 (centres undefined); 872

Data credit: the METLIN SMRT retention time set (Domingo-Almenara et al. 2019)
